Recorded inhibition at 1 µM by entry
targetDesc: HDM2 (Homo sapiens, UniProt Q00987)
Construct: Thioredoxin (N); made in house; host or cells: E. coli strain BL21(DE3)Rosetta
Sequence (Q00987 17-125): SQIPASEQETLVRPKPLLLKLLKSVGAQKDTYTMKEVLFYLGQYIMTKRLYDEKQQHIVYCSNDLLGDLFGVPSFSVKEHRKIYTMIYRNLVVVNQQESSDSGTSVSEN
testProtocol: HDM2 FRET assay (inhibition of binding of FITC labeled p53-pocket peptide to HDM2)
conditionsUsed: read-out: % inh. at 1000 nM; at 1000 nM compound
Answer with a number only, understood to be in %.

molecule | targetDesc | unitDescriptor | inhibition at 1 µM
C[C@@H](Nc1nc(S(C)(=O)=O)nc2nc(N3CCCCC3c3ccccc3)n(C[C@H]3CC[C@H](C)CC3)c12)C1CCC1 (single isomer, unassigned) | HDM2 (Homo sapiens, UniProt Q00987) | % | 46
CC(C)c1ccnc(-c2nc3nc(CN)nc(N[C@H](C)C4CCC4)c3n2C[C@H]2CC[C@H](C)CC2)c1 | HDM2 (Homo sapiens, UniProt Q00987) | % | 39
CC(C)c1ccnc(-c2nc3nc(CNC(=O)C(F)(F)F)nc(N[C@H](C)C4CCC4)c3n2C[C@H]2CC[C@H](C)CC2)c1 | HDM2 (Homo sapiens, UniProt Q00987) | % | 30

Consider the record given below.
Supply measured inhibition at 1 µM of CNc1nc(N[C@H](C)C2CCC2)c2c(n1)nc(N1CCOC[C@H]1c1ccccc1)n2C[C@H]1CC[C@H](C)CC1 in your reply.
46

Reference source for all entries: patent EP2951180B1
